Just for reference, patent US12588678B2 is where these values come from.

# Test system: Tetranychus cinnabarinus mite eggs
# ASSAY SUMMARY: Activity against mite eggs, dipping method on bean seedling leaves
# Format: in vivo
# ASSAY SETUP: Tetranychus cinnabarinus, 96 h, read-out: mortality of mite eggs (%), 10 mg/L; checked after 4 days
PARAMETER: mortality at 10 µg/mL
Give the number first and the unit second.

COMPOUND	mortality at 10 µg/mL
Cc1ccc(S(=O)(=O)Oc2ccc(C3COC(c4c(F)cccc4F)=N3)cc2)cc1 (centres unmarked)	70%
Cc1ccc2ccn(Cc3ccc(C4COC(c5c(F)cccc5F)=N4)cc3)c2c1 (centres unmarked)	65%
O=S(=O)(Oc1ccc(C2COC(c3c(F)cccc3F)=N2)cc1)c1ccccc1F (centres unmarked)	80%
Cc1cccc2ccn(Cc3ccc(C4COC(c5c(F)cccc5F)=N4)cc3)c12 (centres unmarked)	100%

Record mortality at 10 µg/mL for all entries; do not skip any.
1. Fc1cccc(F)c1C1=NC(c2ccc(COCc3cccs3)cc2)CO1 (centres unmarked)
2. CCCS(=O)(=O)Oc1ccc(C2COC(c3c(F)cccc3F)=N2)cc1 (centres unmarked)
3. O=S(=O)(Oc1ccc(C2COC(c3c(F)cccc3F)=N2)cc1)c1ccc2ccccc2c1 (centres unmarked)
4. Fc1cccc(F)c1C1=NC(c2ccc(CN3CC=CC3)cc2)CO1 (centres unmarked)

output:
90%
100%
90%
70%
